Can you tell me selectivity ratio for the items I'm about to list?
test summary: Therapeutic index, ratio of CC50 for human PBMC to EC50 for HIV1 infected in human PBMC
Assay type: toxicity
measurement context: read-out: Ratio CC50/EC50
One number for each entry.

A selection of reference data follows.
molecule: CCCCCCCCCCCCCCCCSSCCOP(=O)(CO[C@H](C)Cn1cnc2c(N)ncnc21)OCC (stereo partly drawn)
measured value: 104

molecule: CCCCCCCCCCCCCCCCSSCCOP(=O)(CO[C@H](C)Cn1cnc2c(N)ncnc21)OCCSSCCCCCCCCCCCCCCCC
measured value: 4

molecule: CCCCCCCCCCCCCCCCSSCCOP(=O)(O)CO[C@H](C)Cn1cnc2c(N)ncnc21.N
measured value: 22000

Kindly review the next molecule as well.
q: Which selectivity ratio is listed for CCCCCCCCCCCCCCCCCCSSCCOP(=O)(O)CO[C@H](C)Cn1cnc2c(N)ncnc21 ?
a: 11000

====

test summary: Therapeutic index, ratio of CC50 for human PBMC to EC50 for HIV1 infected in human PBMC
Assay type: toxicity
measurement context: read-out: Ratio CC50/EC50
Can you tell me selectivity ratio for the items I'm about to list?
Give bare numbers.

A selection of reference data follows.
compound: CCCCCCCCCCCCSSCCOP(=O)(O)CO[C@H](C)Cn1cnc2c(N)ncnc21
selectivity ratio: 8300

compound: CCCCCCCCCCCCCCCCSSCCOP(=O)(CO[C@H](C)Cn1cnc2c(N)ncnc21)OC (stereo not given in full)
selectivity ratio: 1500

compound: CCCCCCCCCCCCCCCCSSCCOP(=O)(CO[C@H](C)Cn1cnc2c(N)ncnc21)OCCCC (stereo not given in full)
selectivity ratio: 150

Kindly review the next compound as well.
q: Which selectivity ratio is listed for CCCCCCCCCCCCCCCCSSCCOP(=O)(CO[C@H](C)Cn1cnc2c(N)ncnc21)Nc1ccccc1 (stereo not given in full) ?
a: 7000

====

Can you tell me selectivity ratio for the items I'm about to list?
test summary: Therapeutic index, ratio of CC90 for human PBMC to EC90 for HIV1 infected in human PBMC
Assay type: toxicity
measurement context: read-out: TI
Where a name gives a salt, the structure may show the parent alone.
One number for each entry.

compound: CCCCCCCCCCCCCCCCSSCCOP(=O)(O)CO[C@H](C)Cn1cnc2c(N)ncnc21.N
selectivity ratio: 11000
//
compound: CCCCCCCCCCCCCCSSCCOP(=O)(O)CO[C@H](C)Cn1cnc2c(N)ncnc21.N
selectivity ratio: 11000

q: Which selectivity ratio is listed for CC(C)OC(=O)OCOP(=O)(CO[C@H](C)Cn1cnc2c(N)ncnc21)OCOC(=O)OC(C)C [TENOFOVIR DISOPROXIL FUMARATE] ?
a: 1300

====

test summary: Half life in RPMI 1640 culture medium at 10^-3 M by HPLC analysis
Assay type: physicochemical
measured attribute: half-life at 1000 µM

q: Which half-life at 1000 µM is listed for Nc1ncnc2c1ncn2CCOCP(=O)(OCCSSCCO)OCCSSCCO ?
a: > 24 h

====

test summary: Therapeutic index, ratio of CC50 for human HepG2.2.15 cells to EC50 for HBV infected in human HepG2.2.15 cells
Format: toxicity, cell-based
measurement context: read-out: Ratio CC50/EC50
Counter-ions that a name gives are not always drawn.
measured attribute: selectivity ratio

A selection of reference data follows.
compound: CCCCCCCCCCCCCCSSCCOP(=O)(CO[C@H](C)Cn1cnc2c(N)ncnc21)OCCSSCCCCCCCCCCCCCC
measured attribute: selectivity ratio
measured value: > 1

compound: CCCCCCCCCCSSCCOP(=O)(CO[C@H](C)Cn1cnc2c(N)ncnc21)OCCSSCCCCCCCCCC
measured attribute: selectivity ratio
measured value: > 1

compound: C[C@H](Cn1cnc2c(N)ncnc21)OCP(=O)(O)OCCSSCCO
measured attribute: selectivity ratio
measured value: > 8.6

compound: CC(C)OC(=O)OCOP(=O)(CO[C@H](C)Cn1cnc2c(N)ncnc21)OCOC(=O)OC(C)C [TENOFOVIR DISOPROXIL FUMARATE]
measured attribute: selectivity ratio
measured value: 86 to 190

compound: CCCCCCCCCCCCSSCCOP(=O)(CO[C@H](C)Cn1cnc2c(N)ncnc21)OCCSSCCCCCCCCCCCC
measured attribute: selectivity ratio
measured value: > 1

Hello, I would appreciate it if you could give selectivity ratio for each entry below.
1. CCCCCCCCCCCCCCSSCCOP(=O)(O)CO[C@H](C)Cn1cnc2c(N)ncnc21.N
2. CCCCCCCCCCCCCCCCCCSSCCOP(=O)(O)CO[C@H](C)Cn1cnc2c(N)ncnc21

a:
1: > 56; 2: > 50

q: Which selectivity ratio is listed for CCCCCCCCCCCCSSCCOP(=O)(O)CO[C@H](C)Cn1cnc2c(N)ncnc21 ?
a: > 30
